- method description: Enzymatic bioconversion in human liver S9 fraction
- Assay type: in vitro ADME
- experimental setup: after 5 h incubation, 100 μM prodrug, 37 °C, mean ± SD, n = 3
measured quantity: Enzymatic stability, remaining percentage, human liver S9

compound	data value
N[C@@H](Cc1cc(I)c(Oc2cc(I)c(OC(=O)c3ccccc3O)c(I)c2)c(I)c1)C(=O)O [Prodrug 4]	84.00 ± 3.90%
N[C@@H](Cc1cc(I)c(OC(=O)c2ccccc2O)c(I)c1)C(=O)O [Prodrug 3]	96.84 ± 3.16%
COc1ccc2cc([C@H](C)C(=O)Oc3c(I)cc(Oc4c(I)cc(C[C@H](N)C(=O)O)cc4I)cc3I)ccc2c1 [Prodrug 6]	78.70 ± 3.74%
COc1ccc2cc([C@H](C)C(=O)Oc3c(I)cc(C[C@H](N)C(=O)O)cc3I)ccc2c1 [Prodrug 5]	69.44 ± 2.10%
CC(C(=O)Oc1c(I)cc(Oc2c(I)cc(C[C@H](N)C(=O)O)cc2I)cc1I)c1cccc(C(=O)c2ccccc2)c1 (mixture of isomers) [Prodrug 2]	85.71 ± 4.27%
